- Test system: U251 CNS
- Assay Comment: NCI tumour cell line growth inhibition, 48 h
Property Name: TGI

Some entries whose results are on file:
[[record]]
molecule = "COc1ccc(-c2cc(=O)c3cc4c(cc3[nH]2)OCO4)c(OC)c1OC"
study_target = "U251 CNS"
value_observed = "> 100 µM"

[[record]]
molecule = "C/C(N=Nc1nc2ccccc2s1)=C1/C=CC=CN1O"
study_target = "U251 CNS"
value_observed = "> 100 µM"

[[record]]
molecule = "CNC(=O)c1cncc(/C=C/c2ccccc2C)c1"
study_target = "U251 CNS"
value_observed = "> 25 µM"

[[record]]
molecule = "O=C(c1ccccc1)C1N=NCC1c1ccc([N+](=O)[O-])cc1 (stereo not given)"
study_target = "U251 CNS"
value_observed = "> 100 µM"


// next entry
Note TGI for the molecule shown: CCC(C(=O)O)c1ccc(OCc2ccccc2)cc1 (stereo not given)
> 100 µM
